Experiment: Qualitative solubility of the HTM in chlorobenzene (spin-coat solution)
Assay type: physicochemical
Conditions: chlorobenzene, organic solvent or mixture; HTM dissolved after heating to 80° C.; read-out: solubility grade 2
measured endpoint: solubility

Query block: Recorded solubility for COc1c(C)cc(N(c2cc(C)c(OC)c(C)c2)c2ccc3c(c2)C2(c4cc(N(c5cc(C)c(OC)c(C)c5)c5cc(C)c(OC)c(C)c5)ccc4-3)c3cc(N(c4cc(C)c(OC)c(C)c4)c4cc(C)c(OC)c(C)c4)ccc3-c3ccc(N(c4cc(C)c(OC)c(C)c4)c4cc(C)c(OC)c(C)c4)cc32)cc1C [Example 3] , please?
Result block: < 210 mg/mL

* * *

Assay: Qualitative solubility of the HTM in chlorobenzene (spin-coat solution)
Format: physicochemical
Conditions: chlorobenzene with LiTFSI and tert-butylpyridine solution, organic solvent or mixture; HTM dissolved after adding salt and base solution and heating to 80° C.; read-out: solubility grade 3
measured endpoint: solubility

Query block: Recorded solubility for COc1c(C)cc(N(c2cc(C)c(OC)c(C)c2)c2ccc3c(c2)C2(c4cc(N(c5cc(C)c(OC)c(C)c5)c5cc(C)c(OC)c(C)c5)ccc4-3)c3cc(N(c4cc(C)c(OC)c(C)c4)c4cc(C)c(OC)c(C)c4)ccc3-c3ccc(N(c4cc(C)c(OC)c(C)c4)c4cc(C)c(OC)c(C)c4)cc32)cc1C , please?
Result block: < 210 mg/mL
